# key: entry, value: melting point
MEASURED ATTRIBUTE: melting point

                            structure_string  measured_attribute             result
 0  COc1cc(C(=O)/C(F)=C/c2cc3c(cc2Br)OCO3)cc(OC)c1OC       melting point  156.3 to 157.8 °C
 1  COC(=O)c1ccc2c(/C=C(\F)C(=O)c3cc(OC)c(OC)c(OC)c3)c[nH]c2c1       melting point  207.3 to 209.1 °C
 2  COc1cc(C(=O)/C(F)=C/c2ccc3sc4ccccc4c3c2)cc(OC)c1OC       melting point  142.6 to 143.8 °C
 3  COc1cc(C(=O)/C(F)=C/c2nc3ccccc3[nH]2)cc(OC)c1OC       melting point  178.9 to 180.9 °C
 4  COc1cc(C(=O)/C(F)=C/c2cc3ccccc3o2)cc(OC)c1OC       melting point  115.5 to 116.6 °C
 5  COc1cc(C(=O)/C(F)=C/c2ccc3occc3c2)cc(OC)c1OC       melting point    94.1 to 94.2 °C
 6  COc1cc(C(=O)/C(F)=C/c2cc3c(cc2[N+](=O)[O-])OCO3)cc(OC)c1OC       melting point  174.7 to 176.6 °C
 7  COc1cc(C(=O)/C(F)=C/c2c(C)[nH]c3ccccc23)cc(OC)c1OC       melting point    204 to 206.4 °C
 8  COC(=O)c1cccc2[nH]cc(/C=C(\F)C(=O)c3cc(OC)c(OC)c(OC)c3)c12       melting point      118 to 119 °C
 9  COc1cc(C(=O)/C(F)=C/c2oc3ccccc3c2C)cc(OC)c1OC       melting point  117.4 to 118.8 °C
10  COc1cc(C(=O)/C(F)=C/c2sc3ccccc3c2C)cc(OC)c1OC       melting point  140.5 to 143.4 °C
11  COc1cc(C(=O)/C(F)=C/c2c(-c3ccccc3)[nH]c3ccccc23)cc(OC)c1OC       melting point  150.7 to 152.4 °C
12  COc1cc(C(=O)/C(F)=C/c2csc3ccccc23)cc(OC)c1OC       melting point      118 to 119 °C
13  COc1cc(C(=O)/C(F)=C/c2ccc3oc4ccccc4c3c2)cc(OC)c1OC       melting point    114 to 116.4 °C
14  COc1cc(C(=O)/C(F)=C/c2ccc3c(c2)CCO3)cc(OC)c1OC       melting point  100.8 to 103.7 °C
15  COc1cc(C(=O)/C(F)=C/c2cccc3c2OCO3)cc(OC)c1OC       melting point  148.1 to 149.1 °C
16  COc1cc(C(=O)/C(F)=C/c2cc3ccccc3s2)cc(OC)c1OC       melting point  122.2 to 123.6 °C
17  COC(=O)c1ccc2[nH]cc(/C=C(\F)C(=O)c3cc(OC)c(OC)c(OC)c3)c2c1       melting point    80.4 to 81.8 °C
18  COc1cc(C(=O)/C(F)=C/c2coc3ccccc23)cc(OC)c1OC       melting point  103.7 to 104.8 °C

----------
Test system: U937 (human leukaemia cells)
Experiment: Antiproliferative activity (CCK-8 assay)
Assay type: cell-based
Settings: U-937, mean ± SD, three separated experiments, 72 h
pIC50: −log10 of the molar value.
pIC50: recorded values
MEASURED ATTRIBUTE: pIC50

                                   compound                   system_name  measured_attribute  result
0  COC(=O)c1ccc2c(/C=C(\F)C(=O)c3cc(OC)c(OC)c(OC)c3)c[nH]c2c1 [4a]  U937 (human leukaemia cells)               pIC50  < 5.30
1  COc1cc(C(=O)/C(F)=C/c2cc3c(cc2Br)OCO3)cc(OC)c1OC [4l]  U937 (human leukaemia cells)               pIC50  < 5.30
2  COc1cc(C(=O)/C(F)=C/c2oc3ccccc3c2C)cc(OC)c1OC [4p]  U937 (human leukaemia cells)               pIC50  < 5.30
